# maps each entry to its CC50
System: SF-539
Test: Growth inhibition of human SF539 cells incubated for 48 hrs by sulforhodamine B assay
Assay type: functional
Settings: SF-539, 48 h, read-out: LC50 (the source's name)
measurement.type: CC50

1) COc1cc2cc(Oc3ccc(NC(=O)Nc4cccc(C(F)(F)F)c4)cc3)c(C)nc2cc1OC    25.4 µM
2) COc1cc2cc(Oc3ccc(NC(=O)Nc4cc(C(F)(F)F)cc(C(F)(F)F)c4)cc3)c(C)nc2cc1OC    7.11 µM
3) COc1cc2cc(Oc3ccc(NC(=O)Nc4ccc(Cl)c(Cl)c4)cc3)c(C)nc2cc1OC    88.8 µM
4) COc1cc2cc(Oc3ccc(NC(=O)Nc4ccc(Cl)c(C(F)(F)F)c4)cc3)c(C)nc2cc1OC    > 32.5 µM
5) Cc1nc2cc(O)c(O)cc2cc1Oc1ccc(NC(=O)Nc2ccc(Cl)c(Cl)c2)cc1    > 32.5 µM

----------
Listed here: items and their measured CC50.
System: OVCAR-5
Test: Growth inhibition of human OVCAR5 cells incubated for 48 hrs by sulforhodamine B assay
Assay type: functional
Settings: OVCAR-5, 48 h, read-out: LC50 (the source's name)
measurement.type: CC50 (µM)

1) COc1cc2cc(Oc3ccc(NC(=O)Nc4cc(C(F)(F)F)cc(C(F)(F)F)c4)cc3)c(C)nc2cc1OC    8.88
2) COc1cc2cc(Oc3ccc(NC(=O)Nc4ccc(Cl)c(C(F)(F)F)c4)cc3)c(C)nc2cc1OC    17.4

----------
Test system: UACC-257
Assay: Growth inhibition of human UACC257 cells incubated for 48 hrs by sulforhodamine B assay
Assay type: functional
Settings: UACC-257, 48 h
Listing of recorded TGI by entry.
measurement.type: TGI (µM)

1) COc1cc2cc(Oc3ccc(NC(=O)Nc4cccc(C(F)(F)F)c4)cc3)c(C)nc2cc1OC    3.66
2) COc1cc2cc(Oc3ccc(NC(=O)Nc4cc(C(F)(F)F)cc(C(F)(F)F)c4)cc3)c(C)nc2cc1OC    5.49
3) COc1cc2cc(Oc3ccc(NC(=O)Nc4ccc(Cl)c(C(F)(F)F)c4)cc3)c(C)nc2cc1OC    2.36
4) Cc1nc2cc(O)c(O)cc2cc1Oc1ccc(NC(=O)Nc2ccc(Cl)c(Cl)c2)cc1    21.3
5) COc1cc2cc(Oc3ccc(NC(=O)Nc4ccc(Cl)c(Cl)c4)cc3)c(C)nc2cc1OC    6.28

----------
Tested on: NCI-H23
Test: Growth inhibition of human NCI-H23 cells incubated for 48 hrs by sulforhodamine B assay
Assay type: functional
Conditions: NCI-H23, 48 h, read-out: LC50 (the source's name)
Recorded CC50 for the following molecules
measurement.type: CC50 (µM)

1) COc1cc2cc(Oc3ccc(NC(=O)Nc4ccc(Cl)c(Cl)c4)cc3)c(C)nc2cc1OC    76.3
2) COc1cc2cc(Oc3ccc(NC(=O)Nc4ccc(Cl)c(C(F)(F)F)c4)cc3)c(C)nc2cc1OC    15.8
3) COc1cc2cc(Oc3ccc(NC(=O)Nc4cc(C(F)(F)F)cc(C(F)(F)F)c4)cc3)c(C)nc2cc1OC    32.3

----------
System: IGROV-1
Assay: Growth inhibition of human IGROV1 cells incubated for 48 hrs by sulforhodamine B assay
Assay type: functional
Conditions: IGROV-1, 48 h
Lab note: compare GI50 with 2000 nM, writing True if less and False if equal or more.

1. COc1cc2cc(Oc3ccc(NC(=O)Nc4ccc(Cl)c(Cl)c4)cc3)c(C)nc2cc1OC    False
2. COc1cc2cc(Oc3ccc(NC(=O)Nc4ccc(Cl)c(C(F)(F)F)c4)cc3)c(C)nc2cc1OC    False
3. COc1cc2cc(Oc3ccc(NC(=O)Nc4cc(C(F)(F)F)cc(C(F)(F)F)c4)cc3)c(C)nc2cc1OC    True
4. COc1cc2cc(Oc3ccc(NC(=O)Nc4cccc(C(F)(F)F)c4)cc3)c(C)nc2cc1OC    False
5. Cc1nc2cc(O)c(O)cc2cc1Oc1ccc(NC(=O)Nc2ccc(Cl)c(Cl)c2)cc1    False

----------
Each entry below carries its reported CC50.
Test system: MDA-MB-231
Assay: Growth inhibition of human MDA-MB-231 cells incubated for 48 hrs by sulforhodamine B assay
Format: functional
Details: MDA-MB-231, 48 h, read-out: LC50 (the source's name)
measurement.type: CC50 (µM)

1) COc1cc2cc(Oc3ccc(NC(=O)Nc4ccc(Cl)c(Cl)c4)cc3)c(C)nc2cc1OC    34.6
2) COc1cc2cc(Oc3ccc(NC(=O)Nc4ccc(Cl)c(C(F)(F)F)c4)cc3)c(C)nc2cc1OC    9.6
3) COc1cc2cc(Oc3ccc(NC(=O)Nc4cccc(C(F)(F)F)c4)cc3)c(C)nc2cc1OC    18.6

----------
Test system: SW-620
Assay: Growth inhibition of human SW620 cells incubated for 48 hrs by sulforhodamine B assay
Format: functional
Conditions: SW-620, 48 h
measurement.type: TGI

1) Cc1nc2cc(O)c(O)cc2cc1Oc1ccc(NC(=O)Nc2ccc(Cl)c(Cl)c2)cc1    > 32.5 µM
2) COc1cc2cc(Oc3ccc(NC(=O)Nc4cccc(C(F)(F)F)c4)cc3)c(C)nc2cc1OC    11.1 µM
3) CNC(=O)c1cc(Oc2ccc(NC(=O)Nc3ccc(Cl)c(C(F)(F)F)c3)cc2)ccn1    5.01 µM
4) COc1cc2cc(Oc3ccc(NC(=O)Nc4cc(C(F)(F)F)cc(C(F)(F)F)c4)cc3)c(C)nc2cc1OC    5.71 µM
5) COc1cc2cc(Oc3ccc(NC(=O)Nc4ccc(Cl)c(Cl)c4)cc3)c(C)nc2cc1OC    15.6 µM
6) COc1cc2cc(Oc3ccc(NC(=O)Nc4ccc(Cl)c(C(F)(F)F)c4)cc3)c(C)nc2cc1OC    4.57 µM

----------
Below: a set of entries, each annotated with reported growth at 10 µM.
System: SF-295
Test: Growth inhibition of human SF295 cells assessed as cell growth at 10 uM incubated for 48 hrs by sulforhodamine B assay relative to control
Type: functional
Settings: SF-295, 48 h, read-out: Activity
measurement.type: growth at 10 µM (%)

1. Cc1nc2cc(O)c(O)cc2cc1Oc1ccc(NC(=O)Nc2ccc(Cl)c(Cl)c2)cc1    95.9
2. COc1cc2cc(Oc3ccc(NC(=O)Nc4ccc(C)cc4)cc3)c(C)nc2cc1OC    107
3. COc1cc2cc(Oc3ccc(NC(=O)Nc4ccc(C(F)(F)F)cc4)cc3)c(C)nc2cc1OC    56
4. COc1cc2cc(Oc3ccc(NC(=O)Nc4ccccc4)cc3)c(C)nc2cc1OC    54

----------
Test system: SN12C
Assay: Growth inhibition of human SN12C cells incubated for 48 hrs by sulforhodamine B assay
Format: functional
measurement.type: GI50

1. COc1cc2cc(Oc3ccc(NC(=O)Nc4ccc(Cl)c(C(F)(F)F)c4)cc3)c(C)nc2cc1OC    1.31 µM
2. Cc1nc2cc(O)c(O)cc2cc1Oc1ccc(NC(=O)Nc2ccc(Cl)c(Cl)c2)cc1    8.97 µM
3. COc1cc2cc(Oc3ccc(NC(=O)Nc4ccc(Cl)c(Cl)c4)cc3)c(C)nc2cc1OC    3.39 µM
4. COc1cc2cc(Oc3ccc(NC(=O)Nc4cc(C(F)(F)F)cc(C(F)(F)F)c4)cc3)c(C)nc2cc1OC    0.59 µM
5. COc1cc2cc(Oc3ccc(NC(=O)Nc4cccc(C(F)(F)F)c4)cc3)c(C)nc2cc1OC    2.06 µM

----------
Test system: Malme-3M
Assay: Growth inhibition of human MALME-3M cells incubated for 48 hrs by sulforhodamine B assay
Format: functional
Decide by TGI: equal to or exceeding 30 µM means yes (1), less means no (0).

1) Cc1nc2cc(O)c(O)cc2cc1Oc1ccc(NC(=O)Nc2ccc(Cl)c(Cl)c2)cc1    no (0)
2) CNC(=O)c1cc(Oc2ccc(NC(=O)Nc3ccc(Cl)c(C(F)(F)F)c3)cc2)ccn1    yes (1)
3) COc1cc2cc(Oc3ccc(NC(=O)Nc4cccc(C(F)(F)F)c4)cc3)c(C)nc2cc1OC    no (0)
4) COc1cc2cc(Oc3ccc(NC(=O)Nc4ccc(Cl)c(C(F)(F)F)c4)cc3)c(C)nc2cc1OC    no (0)
5) COc1cc2cc(Oc3ccc(NC(=O)Nc4ccc(Cl)c(Cl)c4)cc3)c(C)nc2cc1OC    no (0)
6) COc1cc2cc(Oc3ccc(NC(=O)Nc4cc(C(F)(F)F)cc(C(F)(F)F)c4)cc3)c(C)nc2cc1OC    no (0)

----------
Test system: OVCAR-8
Assay: Growth inhibition of human OVCAR8 cells assessed as cell growth at 10 uM incubated for 48 hrs by sulforhodamine B assay relative to control
Assay type: functional
Conditions: OVCAR-8, 48 h, read-out: Activity
# growth at 10 µM binned as 0: < 10%; 1: ≥ 10% and < 70%; 2: ≥ 70%

1. COc1cc2cc(Oc3ccc(NC(=O)Nc4cc(C(F)(F)F)cc(C(F)(F)F)c4)cc3)c(C)nc2cc1OC    1
2. COc1cc2cc(Sc3ccc(NC(=O)Nc4ccc(Cl)c(Cl)c4)cc3)c(C)nc2cc1OC    2
3. Cc1nc2cc(O)c(O)cc2cc1Oc1ccc(NC(=O)Nc2ccc(Cl)c(Cl)c2)cc1    1
4. COc1cc2cc(Oc3ccc(NC(=O)Nc4ccc(Cl)c(C(F)(F)F)c4)cc3)c(C)nc2cc1OC    0
5. COc1cc2cc(Oc3ccc(NC(=O)Nc4ccc(C(F)(F)F)cc4)cc3)c(C)nc2cc1OC    1
6. COc1cc2cc(Oc3ccc(NC(=O)Nc4ccc(Cl)c(Cl)c4)cc3)c(C)nc2cc1OC    1
7. COc1cc2cc(Oc3ccc(NC(=O)Nc4ccc(C)cc4)cc3)c(C)nc2cc1OC    2
8. COc1cc2cc(Oc3ccc(NC(=O)Nc4cccc(C(F)(F)F)c4)cc3)c(C)nc2cc1OC    0
